- TARGET OR SYSTEM: T1, Sc eIF4E (residues T25–L213), His6 tag removed (Saccharomyces cerevisiae, UniProt P07260 25-213)
- T1 sequence (looked up): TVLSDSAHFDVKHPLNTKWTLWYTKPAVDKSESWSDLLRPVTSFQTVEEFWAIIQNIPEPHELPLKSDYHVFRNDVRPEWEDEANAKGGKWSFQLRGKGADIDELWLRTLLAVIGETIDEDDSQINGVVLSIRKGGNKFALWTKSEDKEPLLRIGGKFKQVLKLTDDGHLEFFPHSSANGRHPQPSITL
- TEST SUMMARY: ITC
MEASURED PROPERTY: Kd

Entry GPHMDLQYKTYAYSMNELYHLKPSLA (domain or fragment) [Sc Eap1p canonical motif (C)-GB1] — recorded Kd = 3400 nM

For reference, reported Kd for SASYEEDPLISELVRSLPKRKFWRLRMG (domain or fragment, Saccharomyces cerevisiae, UniProt P36041 123-150, looked up) [Sc Eap1p L+NC fragment (residues S123–G150)-GB1] stands at 1000 nM

In plain terms, KKTAMLNFSSLTDPITNYKPMDLQYKTYAYSMNELYHLKPSLA (domain or fragment, Saccharomyces cerevisiae, UniProt P36041 80-122, looked up) [Sc Eap1p (residues K80–A122; N+C peptide)-GB1] has a documented Kd of 8 nM

TDPITNYKPMDLQYKTYAYSMNELYHLKPSLA (domain or fragment, Saccharomyces cerevisiae, UniProt P36041 91-122, looked up) [Sc Eap1p (T91–A122; N_(short)+C)-GB1] has a reported Kd of 12.9 nM

The measured values listed here are drawn from paper PMC6061780.
